experiment: Toxicity liver stage against HepG2, at 10uM; format: cell-based; set-up: test concentration 10 uM, cell line HepG2-A16-CD81EGFP; conditions: human, HepG2-A16-CD81EGFP cells; read-out: INHIBITION

{"columns": ["COMPOUND", "cytotoxicity at 10 µM (%)"],
 "data": [
  ["COCC(=O)N(Cc1cccc(C)c1)Cc1ccccc1OC", -51.4],
  ["NC(=O)C1CCN(C(=O)CSC2CCCc3ccccc32)CC1 (stereo not given)", 1.4],
  ["CNc1ncc(CN(C)C(=O)c2cccc(-n3cnnc3)c2)cn1", 1.5],
  ["Cc1ccc(CCC(C)NC2CCN(C(N)=O)CC2)cc1 (stereo not given)", -0.613],
  ["Cc1nnc(C(NS(=O)(=O)c2cc(C)c(F)cc2F)C(C)C)[nH]1 (stereo not given)", -6.04]
]}
